The origin of these recorded values is paper PMC9377253.

assayComment: MTT cytotoxicity assay (24 h), Colo 205
Format: cell-based, human
conditionContext: human colonic adenocarcinoma cell lines versus MRC-5, cytotoxicity; read-out: selectivity index [SI], cytotoxicity
observable: selectivity ratio at 24 h
Number only, please.

### Prompt Look up selectivity ratio at 24 h for this compound: CC(=O)O[C@@H]1C[C@H]2[C@@H](C)CC[C@@H]3[C@@H](OC(=O)[C@@H]3C)[C@]2(C)C1=O [Compound 2, acetoxydihydrodamsin]
### Response 3.11

---

Test system: doxorubicin-sensitive Colo 205 colonic adenocarcinoma cells
assayComment: MTT cytotoxicity assay (24 h), Colo 205
Type: cell-based, human
conditionContext: Homo sapiens, COLO 205; MTT, 24 h incubation; read-out: Cytotoxicity IC50, Colo205
Reported IC50 values for a set of compounds

Record excerpt, results attached:
[
  {
    "compound": "C=C1C(=O)O[C@@H]2[C@H]1CCC(C)=C(CCC(=O)OC)[C@@]2(C)O",
    "IC50": "> 100 µM"
  },
  {
    "compound": "C=C1C(=O)O[C@@H]2[C@H]1CC[C@H](C)[C@@H]1CCC(=O)O[C@@]21C",
    "IC50": "26.6 µM"
  }
]

### Prompt Look up IC50 for this compound: `COc1c(O)cc2oc(-c3ccc(O)c(O)c3)c(OC)c(=O)c2c1O`
### Response > 100 µM

### Prompt Look up IC50 for this compound: `C=C1C(=O)O[C@@H]2[C@H]1CC[C@H](C)[C@]1(CCC(=O)O1)[C@@]2(C)O`
### Response 42.4 µM

### Prompt Look up IC50 for this compound: CC(=O)O[C@@H]1C[C@H]2[C@@H](C)CC[C@@H]3[C@@H](OC(=O)[C@@H]3C)[C@]2(C)C1=O [Compound 2, acetoxydihydrodamsin]
### Response 7.64 µM

### Prompt Look up IC50 for this compound: C=C1C(=O)O[C@@H]2[C@H]1CC[C@H](C)[C@H](CCC(=O)OC)[C@@]2(C)O [Compound 7, 1,10-dihydro-1′-noraltamisin]
### Response 53.6 µM

### Prompt Look up IC50 for this compound: `C=C1C(=O)O[C@@H]2C[C@H](C)[C@]3(O)CCC(=O)[C@@]3(C)C[C@H]12`
### Response 64.4 µM
